Experiment: qHTS assay to identify small molecule HDAC inhibitors - cell viability counter screen (AID 1259365); also: % is scaled to controls: 0 for no effect and ±100 for the full control effect; nearly all actives have a fitted effect of over 50% in size
Conditions: HCT-116 viability, CellTiter-Glo ATP luminescence, 2 h; series mostly up to 92.4 µM
Active and inactive are the calls of the source. Calls follow the shape of the dose curve; as a rule, active = well fitted cell-killing curve with a large enough effect in the repeat runs; inconclusive = weak or mixed curves, or effect the other way; inactive = flat fitted curve, though single readings scatter.
ENDPOINT: activity change, negative = cytotoxicity

MOLECULE: CN(C)CCOC(c1ccccc1)c1ccccc1 (tested in a mixture with another compound)
RESULT: inactive
--
MOLECULE: CCCCOCC
RESULT: inactive
--
MOLECULE: CCCCCCCCCCCCN(CCO)CCO
RESULT: inactive
--
MOLECULE: C=CC(C)C#N (stereo not drawn)
RESULT: inactive
--
MOLECULE: CCN(CC)CCOc1ccc(C(O)(Cc2ccc(Cl)cc2)c2ccc(C)cc2)cc1 (stereo not drawn)
RESULT: inactive
--
MOLECULE: OCCN1CN(CCO)CN(CCO)C1
RESULT: inactive
--
MOLECULE: C/C=C/c1ccc(OC)c(OC)c1
RESULT: inactive
--
MOLECULE: C=CC(C)(CCC=C(C)C)OC(=O)/C=C/c1ccccc1 (stereo not drawn)
RESULT: inactive
--
MOLECULE: C=CCCCCCCC=C
RESULT: inactive
--
MOLECULE: CC(C)(C)C1=CC(=O)C=C(C(C)(C)C)C1=O
RESULT: inactive

Briefly, activity change, negative = cytotoxicity measured for CN(C)c1ccc(N=Nc2ccccc2C(=O)O)cc1 : inactive

Note to self: activity change, negative = cytotoxicity recorded for CCOC(=O)C1=C(C)NC(C)=C(C(=O)OCC)C1c1ccccc1/C=C/C(=O)OC(C)(C)C was inactive

Recorded activity change, negative = cytotoxicity (molecule O=C(O)Cc1ccc(OCCNC[C@H](O)c2ccccc2)cc1 ): inactive

GET /value?item= Cc1cccc(N(C)C)c1 &field=activity change, negative = cytotoxicity returns inactive

O=S(O)O yielded activity change, negative = cytotoxicity of 2.88% [at 19 µM] (inactive)

activity change, negative = cytotoxicity in this record for NC(=O)C(=O)N/N=C/c1ccc([N+](=O)[O-])o1 : inactive
